ASSAY NOTES: Biodistribution after day 3 in mouse kidney
Format: ADME, organism-based
TEST READOUT: log10(concentration at 3 day) (log10 of the value in ng/g)
// stored as log10 of concentration at 3 day expressed in ng/g

[
  {
    "COMPOUND": "CCc1c(CC)c2cc3nc(cc4[nH]c(c(C)c4CC)c4[nH]c(cc5nc(cc1[nH]2)C(CCC(=O)N(CCO)CCO)=C5C)c(CC)c4C)C(C)=C3CCC(=O)N(CCO)CCO",
    "TEST READOUT": "log10(concentration at 3 day)",
    "OBSERVED RESULT": 2.52
  },
  {
    "COMPOUND": "CCC1=C(CC)c2cc3[nH]c(cc4[nH]c(c(C)c4CC)c4[nH]c(cc5nc(cc1n2)C(CCC(=O)NCCOCCOCCN)=C5C)c(CC)c4C)c(C)c3CCC(=O)NCCOCCOCCN",
    "TEST READOUT": "log10(concentration at 3 day)",
    "OBSERVED RESULT": 3.83
  }
]

stdin: Given "CCc1c(CC)c2cc3nc(cc4[nH]c(c(C)c4CC)c4[nH]c(cc5nc(cc1[nH]2)C(CCC(=O)NCCN(CCN)CCN)=C5C)c(CC)c4C)C(C)=C3CCC(=O)NCCN(CCN)CCN" , state its recorded log10(concentration at 3 day).
stdout: 3.76

stdin: Repeat with CCc1c(CC)c2cc3nc(cc4[nH]c(c(C)c4CC)c4[nH]c(cc5nc(cc1[nH]2)C(CCC(=O)NC1C(O)OC(CO)C(O)C1O)=C5C)c(CC)c4C)C(C)=C3CCC(=O)NC1C(O)OC(CO)C(O)C1O (stereo unspecified)
stdout: 3.28

stdin: Would you mind doing "CCc1c(CC)c2cc3nc(cc4[nH]c(c(C)c4CC)c4[nH]c(cc5nc(cc1[nH]2)C(CCC(=O)NCCOCCOCCO)=C5C)c(CC)c4C)C(C)=C3CCC(=O)NCCOCCOCCO" as well?
stdout: 4.77

stdin: Param item: C=CC1=C(C)c2cc3nc(cc4[nH]c(cc5[nH]c(cc1n2)c(C)c5CCC(=O)NC1C(O)OC(CO)C(O)C1O)c(CCC(=O)NC1C(O)OC(CO)C(O)C1O)c4C)C(C=C)=C3C (stereo unspecified)
stdout: 3.49

* * *

ASSAY NOTES: Biodistribution after day 9 in mouse lung
Assay type: ADME, organism-based
Each entry below lists one item and its recorded concentration at 9 day value.
Note: unit ng/g is implicit; provide only the numeric part.

[
  {
    "COMPOUND": "CCc1c(CC)c2cc3nc(cc4[nH]c(c(C)c4CC)c4[nH]c(cc5nc(cc1[nH]2)C(CCC(=O)NC1C(O)OC(CO)C(O)C1O)=C5C)c(CC)c4C)C(C)=C3CCC(=O)NC1C(O)OC(CO)C(O)C1O (configuration not stated)",
    "OBSERVED RESULT": 8000
  }
]

Now turn to the next compound.
stdin: Please report the recorded concentration at 9 day for C=CC1=C(C)c2cc3nc(cc4[nH]c(cc5[nH]c(cc1n2)c(C)c5CCC(=O)NC1C(O)OC(CO)C(O)C1O)c(CCC(=O)NC1C(O)OC(CO)C(O)C1O)c4C)C(C=C)=C3C (configuration not stated) .
stdout: 2300
